# test-conditions: in water, 313.15 K
observable: solubility (mole fraction)
Lab note: jot down the number only; don't add units.

Data request: Quick one: solubility (mole fraction) for `N#CCC(N)=O` ?
Data returned: 0.086

----------
# test-conditions: in n-propanol, 288.15 K
observable: solubility (mole fraction)
Lab note: jot down the number only; don't add units.

Data request: Quick one: solubility (mole fraction) for `N#CCC(N)=O` ?
Data returned: 0.00421

----------
# test-conditions: in methanol, 283.15 K
observable: solubility (mole fraction)
Lab note: jot down the number only; don't add units.

Data request: Quick one: solubility (mole fraction) for `N#CCC(N)=O` ?
Data returned: 0.0186

----------
# test-conditions: in ethanol, 323.15 K
observable: solubility (mole fraction)
Lab note: jot down the number only; don't add units.

Data request: Quick one: solubility (mole fraction) for `N#CCC(N)=O` ?
Data returned: 0.0362

----------
# test-conditions: in methanol, 293.15 K
observable: solubility (mole fraction)

Data request: Quick one: solubility (mole fraction) for `N#CCC(N)=O` ?
Data returned: 0.0273

----------
# test-conditions: in water, 308.15 K
observable: solubility (mole fraction)

Data request: Quick one: solubility (mole fraction) for `N#CCC(N)=O` ?
Data returned: 0.0651

----------
# test-conditions: in n-propanol, 323.15 K
observable: solubility (mole fraction)
Lab note: jot down the number only; don't add units.

Data request: Quick one: solubility (mole fraction) for `N#CCC(N)=O` ?
Data returned: 0.0229

----------
# test-conditions: in n-propanol, 283.15 K
observable: solubility (mole fraction)
Lab note: jot down the number only; don't add units.

Data request: Quick one: solubility (mole fraction) for `N#CCC(N)=O` ?
Data returned: 0.00345

----------
# test-conditions: in isopropanol, 288.15 K
observable: solubility (mole fraction)
Lab note: jot down the number only; don't add units.

Data request: Quick one: solubility (mole fraction) for `N#CCC(N)=O` ?
Data returned: 0.00548

----------
# test-conditions: in isopropanol, 293.15 K
observable: solubility (mole fraction)
Lab note: jot down the number only; don't add units.

Data request: Quick one: solubility (mole fraction) for `N#CCC(N)=O` ?
Data returned: 0.00648

----------
# test-conditions: in methanol, 313.15 K
observable: solubility (mole fraction)
Lab note: jot down the number only; don't add units.

Data request: Quick one: solubility (mole fraction) for `N#CCC(N)=O` ?
Data returned: 0.0565

----------
# test-conditions: in methanol, 308.15 K
observable: solubility (mole fraction)
Lab note: jot down the number only; don't add units.

Data request: Quick one: solubility (mole fraction) for `N#CCC(N)=O` ?
Data returned: 0.048

----------
# test-conditions: in methanol, 303.15 K
observable: solubility (mole fraction)
Lab note: jot down the number only; don't add units.

Data request: Quick one: solubility (mole fraction) for `N#CCC(N)=O` ?
Data returned: 0.0401

----------
# test-conditions: in isopropanol, 313.15 K
observable: solubility (mole fraction)
Lab note: jot down the number only; don't add units.

Data request: Quick one: solubility (mole fraction) for `N#CCC(N)=O` ?
Data returned: 0.0168

----------
# test-conditions: in methanol, 288.15 K
observable: solubility (mole fraction)
Lab note: jot down the number only; don't add units.

Data request: Quick one: solubility (mole fraction) for `N#CCC(N)=O` ?
Data returned: 0.0227

----------
# test-conditions: in methanol, 298.15 K
observable: solubility (mole fraction)

Data request: Quick one: solubility (mole fraction) for `N#CCC(N)=O` ?
Data returned: 0.0332

----------
# test-conditions: in ethanol, 298.15 K
observable: solubility (mole fraction)
Lab note: jot down the number only; don't add units.

Data request: Quick one: solubility (mole fraction) for `N#CCC(N)=O` ?
Data returned: 0.0129

----------
# test-conditions: in n-propanol, 303.15 K
observable: solubility (mole fraction)

Data request: Quick one: solubility (mole fraction) for `N#CCC(N)=O` ?
Data returned: 0.0091

----------
# test-conditions: in isopropanol, 283.15 K
observable: solubility (mole fraction)
Lab note: jot down the number only; don't add units.

Data request: Quick one: solubility (mole fraction) for `N#CCC(N)=O` ?
Data returned: 0.00409

----------
# test-conditions: in isopropanol, 308.15 K
observable: solubility (mole fraction)

Data request: Quick one: solubility (mole fraction) for `N#CCC(N)=O` ?
Data returned: 0.0135

----------
# test-conditions: in methanol, 323.15 K
observable: solubility (mole fraction)
Lab note: jot down the number only; don't add units.

Data request: Quick one: solubility (mole fraction) for `N#CCC(N)=O` ?
Data returned: 0.08

----------
# test-conditions: in n-propanol, 298.15 K
observable: solubility (mole fraction)

Data request: Quick one: solubility (mole fraction) for `N#CCC(N)=O` ?
Data returned: 0.0072

----------
# test-conditions: in water, 288.15 K
observable: solubility (mole fraction)

Data request: Quick one: solubility (mole fraction) for `N#CCC(N)=O` ?
Data returned: 0.0221

----------
# test-conditions: in water, 283.15 K
observable: solubility (mole fraction)
Lab note: jot down the number only; don't add units.

Data request: Quick one: solubility (mole fraction) for `N#CCC(N)=O` ?
Data returned: 0.0171

----------
# test-conditions: in water, 318.15 K
observable: solubility (mole fraction)
Lab note: jot down the number only; don't add units.

Data request: Quick one: solubility (mole fraction) for `N#CCC(N)=O` ?
Data returned: 0.11

----------
# test-conditions: in water, 298.15 K
observable: solubility (mole fraction)
Lab note: jot down the number only; don't add units.

Data request: Quick one: solubility (mole fraction) for `N#CCC(N)=O` ?
Data returned: 0.039

----------
# test-conditions: in methanol, 318.15 K
observable: solubility (mole fraction)
Lab note: jot down the number only; don't add units.

Data request: Quick one: solubility (mole fraction) for `N#CCC(N)=O` ?
Data returned: 0.0684

----------
# test-conditions: in isopropanol, 318.15 K
observable: solubility (mole fraction)
Lab note: jot down the number only; don't add units.

Data request: Quick one: solubility (mole fraction) for `N#CCC(N)=O` ?
Data returned: 0.0197

----------
# test-conditions: in water, 303.15 K
observable: solubility (mole fraction)
Lab note: jot down the number only; don't add units.

Data request: Quick one: solubility (mole fraction) for `N#CCC(N)=O` ?
Data returned: 0.0505

----------
# test-conditions: in n-propanol, 308.15 K
observable: solubility (mole fraction)
Lab note: jot down the number only; don't add units.

Data request: Quick one: solubility (mole fraction) for `N#CCC(N)=O` ?
Data returned: 0.0115

----------
# test-conditions: in ethanol, 303.15 K
observable: solubility (mole fraction)
Lab note: jot down the number only; don't add units.

Data request: Quick one: solubility (mole fraction) for `N#CCC(N)=O` ?
Data returned: 0.0157
